Measured OD450 absorbance of individual entries
# tgt: T1, QIEKLVAGKSQIQ (not fully specified)
# T1 construct: member of the group m41; the text speaks of glycine substitution, the sheet prints alanine
# T1 peptide: QIEKLVAGKSQIQ
# experiment: ELISA, immobilized peptide QIEKLVAGKSQIQ
No end group written: not given here.
Quick one: just the number, no unit, thanks!

Reference set (3 entries):
MM08 (antibody, IgG1, V domains shown) VH: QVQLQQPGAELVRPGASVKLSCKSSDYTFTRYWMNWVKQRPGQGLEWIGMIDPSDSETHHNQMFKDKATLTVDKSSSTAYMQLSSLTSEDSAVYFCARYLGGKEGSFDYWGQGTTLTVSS VL: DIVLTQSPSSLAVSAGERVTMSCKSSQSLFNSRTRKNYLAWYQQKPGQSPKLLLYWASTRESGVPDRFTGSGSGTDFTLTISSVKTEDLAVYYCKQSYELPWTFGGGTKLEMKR: 0.566
MM05 (antibody, IgG1, V domains shown) VH: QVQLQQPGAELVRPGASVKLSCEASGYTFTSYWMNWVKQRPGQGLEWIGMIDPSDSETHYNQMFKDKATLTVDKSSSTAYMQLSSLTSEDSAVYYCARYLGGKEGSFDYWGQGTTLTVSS VL: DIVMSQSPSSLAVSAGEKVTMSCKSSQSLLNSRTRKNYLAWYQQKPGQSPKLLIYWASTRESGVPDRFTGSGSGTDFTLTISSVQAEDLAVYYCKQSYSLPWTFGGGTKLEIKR: 0.615
MM07 (antibody, V domains shown, The VH and VL begin with what look like leader peptides (MDWLW..., MVSSAQ...)) VH: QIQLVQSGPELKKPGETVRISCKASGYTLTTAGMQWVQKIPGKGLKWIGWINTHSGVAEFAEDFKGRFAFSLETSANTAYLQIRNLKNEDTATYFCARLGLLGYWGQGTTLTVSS VL: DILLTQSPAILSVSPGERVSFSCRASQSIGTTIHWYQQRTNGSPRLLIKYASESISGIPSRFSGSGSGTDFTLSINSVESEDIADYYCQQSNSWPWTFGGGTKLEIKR: 0.899

Now consider the entry below.
Request: Need OD450 absorbance of MM14 (antibody, IgG2b, V domains shown) VH: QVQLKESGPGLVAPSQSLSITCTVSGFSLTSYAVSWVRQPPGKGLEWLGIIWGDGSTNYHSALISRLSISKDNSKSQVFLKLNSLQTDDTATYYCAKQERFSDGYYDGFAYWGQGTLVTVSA VL: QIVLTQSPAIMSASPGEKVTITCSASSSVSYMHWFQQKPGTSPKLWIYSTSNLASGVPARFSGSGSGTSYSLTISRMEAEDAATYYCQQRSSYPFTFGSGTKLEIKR , thanks.
Result: 0.766
